# Tested on: LCLC-103H
# ASSAY_TEXT: relative viability (nuclei count vs DMSO), 5 days (fraction); higher = more cells survive
# MEASUREMENT_CONTEXT: first compound 0.253 µM
Here, each record is paired with measured relative viability data.
I'd appreciate a reply containing only the number, no unit.

Data request: Would you kindly share the measured relative viability for Nc1cccc2c1CN(C1CCC(=O)NC1=O)C2=O (stereo not given) [Lenalidomide] + C[C@@H](Oc1cc(-c2cnn(C3CCNCC3)c2)cnc1N)c1c(Cl)ccc(F)c1Cl [Crizotinib] (partner 1 µM) ?
Data returned: 1.03

Data request: Now consider Nc1cccc2c1CN(C1CCC(=O)NC1=O)C2=O (stereo not given) [Lenalidomide] + COc1cccc2cc(-c3nc([C@H]4CC[C@H](C(=O)O)CC4)n4ncnc(N)c34)[nH]c12 [OSI-027] (partner 0.5 µM) .
Data returned: 0.433

###

# System: HCC-44
# ASSAY_TEXT: relative viability (nuclei count vs DMSO), 5 days (fraction); higher = more cells survive
# MEASUREMENT_CONTEXT: first compound 0.253 µM
READOUT_NAME: relative viability
I'd appreciate a reply containing only the number, no unit.

Examples from the recorded data:
Nc1cccc2c1CN(C1CCC(=O)NC1=O)C2=O (stereo not drawn) [Lenalidomide] + CC(=O)c1c(C)c2cnc(Nc3ccc(N4CCNCC4)cn3)nc2n(C2CCCC2)c1=O [Palbociclib] (partner 0.5 µM) = 0.965
Nc1cccc2c1CN(C1CCC(=O)NC1=O)C2=O (stereo not drawn) [Lenalidomide] + N=C(N)NC(=N)NCCc1ccccc1 [Phenformin] (partner 250 µM) = 0.272

// next entry
Data request: Would you kindly share the measured relative viability for Nc1cccc2c1CN(C1CCC(=O)NC1=O)C2=O (stereo not drawn) [Lenalidomide] + Nc1ncn([C@H]2C[C@H](O)[C@@H](CO)O2)c(=O)n1 [Decitabine] (partner 2 µM) ?
Data returned: 0.946

###

Here, each record is paired with measured relative viability data.
# Tested on: HOP-62
# ASSAY_TEXT: relative viability (nuclei count vs DMSO), 5 days (fraction); higher = more cells survive
# MEASUREMENT_CONTEXT: first compound 0.006325 µM

CCNC(=O)c1noc(-c2cc(C(C)C)c(O)cc2O)c1-c1ccc(CN2CCOCC2)cc1 [Luminespib] + CC(=O)c1c(C)c2cnc(Nc3ccc(N4CCNCC4)cn3)nc2n(C2CCCC2)c1=O [Palbociclib] (partner 0.5 µM) = 0.449

Data request: Would you kindly share the measured relative viability for CCNC(=O)c1noc(-c2cc(C(C)C)c(O)cc2O)c1-c1ccc(CN2CCOCC2)cc1 [Luminespib] + O=C(c1cc(Cc2n[nH]c(=O)c3ccccc23)ccc1F)N1CCN(C(=O)C2CC2)CC1 [Olaparib] (partner 8 µM) ?
Data returned: 0.453

Data request: Now consider CCNC(=O)c1noc(-c2cc(C(C)C)c(O)cc2O)c1-c1ccc(CN2CCOCC2)cc1 [Luminespib] + Cc1nc(Nc2ncc(C(=O)Nc3c(C)cccc3Cl)s2)cc(N2CCN(CCO)CC2)n1 [Dasatinib] (partner 0.075 µM) .
Data returned: 0.611

Data request: Now consider CCNC(=O)c1noc(-c2cc(C(C)C)c(O)cc2O)c1-c1ccc(CN2CCOCC2)cc1 [Luminespib] + NC(=O)Nc1cc(-c2cccc(F)c2)sc1C(=O)N[C@H]1CCCNC1 [AZD7762] (partner 0.2 µM) .
Data returned: 0.463

###

Here, each record is paired with measured relative viability data.
# Test system: SK-MES-1
# ASSAY_TEXT: relative viability (nuclei count vs DMSO), 5 days (fraction); higher = more cells survive
# MEASUREMENT_CONTEXT: first compound 0.02 µM
I'd appreciate a reply containing only the number, no unit.

Examples from the recorded data:
CN1CCN(CCOc2cc(OC3CCOCC3)c3c(Nc4c(Cl)ccc5c4OCO5)ncnc3c2)CC1 [Saracatinib] + Cc1nc(NC(=O)N2CCC[C@H]2C(N)=O)sc1-c1ccnc(C(C)(C)C(F)(F)F)c1 [Alpelisib] (partner 2 µM) = 0.713
CCNC(=O)c1noc(-c2cc(C(C)C)c(O)cc2O)c1-c1ccc(CN2CCOCC2)cc1 [Luminespib] + COc1cc2c(Oc3ccc(NC(=O)C4(C(=O)Nc5ccc(F)cc5)CC4)cc3F)ccnc2cc1OCCCN1CCOCC1 [Foretinib] (partner 0.25 µM) = 0.777
CN1CCN(CCOc2cc(OC3CCOCC3)c3c(Nc4c(Cl)ccc5c4OCO5)ncnc3c2)CC1 [Saracatinib] + COc1cc2c(Oc3ccc(NC(=O)C4(C(=O)Nc5ccc(F)cc5)CC4)cc3F)ccnc2cc1OCCCN1CCOCC1 [Foretinib] (partner 0.25 µM) = 0.94
CCNC(=O)c1noc(-c2cc(C(C)C)c(O)cc2O)c1-c1ccc(CN2CCOCC2)cc1 [Luminespib] + Cc1nc(NC(=O)N2CCC[C@H]2C(N)=O)sc1-c1ccnc(C(C)(C)C(F)(F)F)c1 [Alpelisib] (partner 2 µM) = 0.593
CCNC(=O)c1noc(-c2cc(C(C)C)c(O)cc2O)c1-c1ccc(CN2CCOCC2)cc1 [Luminespib] + CC(=O)c1c(C)c2cnc(Nc3ccc(N4CCNCC4)cn3)nc2n(C2CCCC2)c1=O [Palbociclib] (partner 0.5 µM) = 0.368

Data request: Requested read-out relative viability, target or system SK-MES-1, entry CN1CCN(CCOc2cc(OC3CCOCC3)c3c(Nc4c(Cl)ccc5c4OCO5)ncnc3c2)CC1 [Saracatinib] + N=C(N)NC(=N)NCCc1ccccc1 [Phenformin] (partner 250 µM)
Data returned: 0.65

Data request: Now consider CN1CCN(CCOc2cc(OC3CCOCC3)c3c(Nc4c(Cl)ccc5c4OCO5)ncnc3c2)CC1 [Saracatinib] + CC(=O)Nc1cccc(-n2c(=O)n(C3CC3)c(=O)c3c(Nc4ccc(I)cc4F)n(C)c(=O)c(C)c32)c1 [Trametinib] (partner 0.02 µM) .
Data returned: 0.548

Data request: Now consider CCNC(=O)c1noc(-c2cc(C(C)C)c(O)cc2O)c1-c1ccc(CN2CCOCC2)cc1 [Luminespib] + Cc1nc(Nc2ncc(C(=O)Nc3c(C)cccc3Cl)s2)cc(N2CCN(CCO)CC2)n1 [Dasatinib] (partner 0.075 µM) .
Data returned: 0.217

###

# Tested on: NCI-H1734
# ASSAY_TEXT: relative viability (nuclei count vs DMSO), 5 days (fraction); higher = more cells survive
# MEASUREMENT_CONTEXT: first compound 0.2 µM
READOUT_NAME: relative viability

CCNC(=O)c1noc(-c2cc(C(C)C)c(O)cc2O)c1-c1ccc(CN2CCOCC2)cc1 [Luminespib] + CC(=O)c1c(C)c2cnc(Nc3ccc(N4CCNCC4)cn3)nc2n(C2CCCC2)c1=O [Palbociclib] (partner 0.5 µM) = 0.144
CCNC(=O)c1noc(-c2cc(C(C)C)c(O)cc2O)c1-c1ccc(CN2CCOCC2)cc1 [Luminespib] + Cc1nc(NC(=O)N2CCC[C@H]2C(N)=O)sc1-c1ccnc(C(C)(C)C(F)(F)F)c1 [Alpelisib] (partner 2 µM) = 0.158
CCNC(=O)c1noc(-c2cc(C(C)C)c(O)cc2O)c1-c1ccc(CN2CCOCC2)cc1 [Luminespib] + COc1cccc2cc(-c3nc([C@H]4CC[C@H](C(=O)O)CC4)n4ncnc(N)c34)[nH]c12 [OSI-027] (partner 0.5 µM) = 0.156
Cc1csc(=NC2CCCCC2)n1/N=C/c1ccc(O)c(O)c1O [MIM1] + NC(=O)Nc1cc(-c2cccc(F)c2)sc1C(=O)N[C@H]1CCCNC1 [AZD7762] (partner 0.2 µM) = 0.524
CCNC(=O)c1noc(-c2cc(C(C)C)c(O)cc2O)c1-c1ccc(CN2CCOCC2)cc1 [Luminespib] + CC1(C)CCC(c2ccc(Cl)cc2)=C(CN2CCN(c3ccc(C(=O)NS(=O)(=O)c4ccc(N[C@H](CCN5CCOCC5)CSc5ccccc5)c(S(=O)(=O)C(F)(F)F)c4)cc3)CC2)C1 [Navitoclax] (partner 0.5 µM) = 0.122
Cc1csc(=NC2CCCCC2)n1/N=C/c1ccc(O)c(O)c1O [MIM1] + CC1(C)CCC(c2ccc(Cl)cc2)=C(CN2CCN(c3ccc(C(=O)NS(=O)(=O)c4ccc(N[C@H](CCN5CCOCC5)CSc5ccccc5)c(S(=O)(=O)C(F)(F)F)c4)cc3)CC2)C1 [Navitoclax] (partner 0.5 µM) = 0.807
Cc1csc(=NC2CCCCC2)n1/N=C/c1ccc(O)c(O)c1O [MIM1] + O=C(c1cc(Cc2n[nH]c(=O)c3ccccc23)ccc1F)N1CCN(C(=O)C2CC2)CC1 [Olaparib] (partner 8 µM) = 0.58
CCNC(=O)c1noc(-c2cc(C(C)C)c(O)cc2O)c1-c1ccc(CN2CCOCC2)cc1 [Luminespib] + COc1cc2c(Oc3ccc(NC(=O)C4(C(=O)Nc5ccc(F)cc5)CC4)cc3F)ccnc2cc1OCCCN1CCOCC1 [Foretinib] (partner 0.25 µM) = 0.171

Data request: Would you kindly share the measured relative viability for CCNC(=O)c1noc(-c2cc(C(C)C)c(O)cc2O)c1-c1ccc(CN2CCOCC2)cc1 [Luminespib] + Cc1nc(Nc2ncc(C(=O)Nc3c(C)cccc3Cl)s2)cc(N2CCN(CCO)CC2)n1 [Dasatinib] (partner 0.075 µM) ?
Data returned: 0.106

Data request: Now consider CCNC(=O)c1noc(-c2cc(C(C)C)c(O)cc2O)c1-c1ccc(CN2CCOCC2)cc1 [Luminespib] + CS(=O)(=O)N1CCN(Cc2cc3nc(-c4cccc5[nH]ncc45)nc(N4CCOCC4)c3s2)CC1 [Pictilisib] (partner 1 µM) .
Data returned: 0.146

Data request: Now consider Cc1csc(=NC2CCCCC2)n1/N=C/c1ccc(O)c(O)c1O [MIM1] + Cc1nc(NC(=O)N2CCC[C@H]2C(N)=O)sc1-c1ccnc(C(C)(C)C(F)(F)F)c1 [Alpelisib] (partner 2 µM) .
Data returned: 0.738
